Tested on: MCF-7 breast tumour cell line
Run Description: Tumor cell proliferation assay (CellTiter-Glo, 72 h), MCF-7
Assay type: cell-based
Conditions: Homo sapiens, MCF7; 1.67 μM, 72 h drug exposure; read-out: MCF-7 median inhibition at 1.67 μM (%)

[
  {
    "Compound": "CCOC(=O)c1cn2c(-c3ccccc3)c(-c3ccc(C4(N)CCC4)cc3)nc2cn1 [Example 5]",
    "Unit Symbol": "%",
    "inhibition at 1.67 µM": 40.6
  },
  {
    "Compound": "COc1nc(C(N)=O)cn2c(-c3ccccc3)c(-c3ccc(C4(N)CCC4)cc3)nc12 [Example 8]",
    "Unit Symbol": "%",
    "inhibition at 1.67 µM": 73.1
  },
  {
    "Compound": "COc1nc(Br)cn2c(-c3ccccc3)c(-c3ccc(C4(N)CCC4)cc3)nc12 [Example 3]",
    "Unit Symbol": "%",
    "inhibition at 1.67 µM": 46.2
  }
]

Values were extracted from patent US9260435B2.
